target_system: E3 ubiquitin-protein ligase SIAH1 (Homo sapiens)
assay_notes: inhibitors of Siah-1 ligand interaction – biochemical, TR-FRET, dose response (AID 2141)
assay_context: TR-FRET biochemical assay, Siah-1 binding
The source made the active and inactive calls. No rule for the calls is given here.
result_type: IC50

Cc1coc2c(C)c3oc(=O)c(CCC(=O)N[C@@H](C)C(=O)N[C@@H](Cc4ccccc4)C(=O)O)c(C)c3cc12; 11.4 µM

Consider the molecule shown here: "COc1cccc2cc(C(=O)N3CCc4ccccc43)c(=O)oc12" What is its recorded IC50?
> 200 µM (inactive)

// same read-out, input: "COC(=O)c1c(C(=O)OC)c2cccc3cc(-c4ccccc4)c4ccc1c4n32"
14.6 µM

// same read-out, input: "CCN(CC)CCOC(=O)c1ccc(N/C=C(/C#N)c2nc(-c3ccc(OC)c(OC)c3)cs2)cc1"
< 1.56 µM

// same read-out, input: "Nc1c(C(=O)NCc2ccco2)c2nc3ccccc3nc2n1Cc1ccccc1"
< 1.56 µM

====

target_system: E3 ubiquitin-protein ligase SIAH1 (Homo sapiens) (UniProt Q8IUQ4)
assay_notes: inhibitors of Siah-1 ligand interaction – biochemical, TR-FRET, dose response (AID 2141)
assay_context: TR-FRET biochemical assay, Siah-1 binding
Active and inactive are the calls of the source. How the calls were made is not given here.
Bench note: report the call from 1 (active), -1 (inactive)

Please share the test call associated with "COC(=O)c1cc(NC(=O)c2ccccc2)c(=O)oc1/C=C/Nc1ccc(Oc2ccccc2)cc1" .
-1

// same read-out, input: CC(=O)c1ccc(NC(=O)CC2Nc3cccc4cccc(c34)NC2=O)cc1 (configuration not stated)
1

// same read-out, input: "CCOc1cc(/C=C(\C#N)C(=O)Nc2ccccc2C(=O)O)ccc1OC(=O)c1ccc(C)cc1"
-1

// same read-out, input: "CN(C)CCOC(=O)CCc1ccccc1"
-1

// same read-out, input: "O=C(/C=C/c1ccco1)OCc1nnc(-c2ccccc2)o1"
1

// same read-out, input: "Cc1ccc(OCCCN2CCOCC2)cc1"
-1

// same read-out, input: C[C@]12CCC3C(CC=C4C[C@@H](O)CC[C@@]43C)C1CCC2[C@]1(C)CCC(=O)O1 (some centres not stated)
-1

// same read-out, input: "Cc1ccc(S(=O)(=O)NN=C2C3CC4CC(C3)CC2C4)cc1[N+](=O)[O-]"
-1

// same read-out, input: "COC(=O)c1cccc(Cn2c(Cl)c(/C=N/NC(=O)c3ccccc3Cl)sc2=O)c1"
1

// same read-out, input: "CC(=O)Nc1ccc(N=Cc2c(O)c(C(=O)Nc3ccccc3)cc3ccccc23)cc1"
-1

// same read-out, input: CN1C(=O)NC(c2ccccc2[N+](=O)[O-])C2=C1CCCC2=O (configuration not stated)
-1

// same read-out, input: "O=c1[nH]c(-c2ccc(F)cc2)nc2c1sc(=S)n2-c1ccccc1"
-1

====

target_system: E3 ubiquitin-protein ligase SIAH1 (Homo sapiens) (UniProt Q8IUQ4)
assay_notes: inhibitors of Siah-1 ligand interaction – biochemical, TR-FRET, dose response (AID 2141)
assay_context: TR-FRET biochemical assay, Siah-1 binding
Calls of active or inactive are those of the source. How the calls were made is not given here.
Bench note: report the call from active, inactive

Some solved cases for reference:
COCCOC(=O)c1sc(=S)n(CCOC)c1N; active
COCCCn1c(N)c(C(=O)NCc2ccco2)c2nc3ccccc3nc21; active
CCOC(=O)/C(C#N)=c1/s/c(=C2\C=Cc3ccccc3N2CC)c(=O)n1CC; inactive
O=C1C=C(NCc2ccccc2)c2ccccc2C1=O; active

Please share the test call associated with "O=c1[nH]n(-c2ccc([N+](=O)[O-])cc2)c(=O)c2ccccc12" .
active

// same read-out, input: "O=c1ccc2c(-c3ccccc3)c3ccc(O)cc3oc-2c1"
inactive

// same read-out, input: "O=C(Cn1cnc2scc(-c3ccccc3)c2c1=O)NCc1ccco1"
active

// same read-out, input: "O=C(CCN1CCN(Cc2ccccc2)CC1)Nc1cccc(Cl)c1"
inactive

// same read-out, input: "C=CCc1cccc2cc(C(=O)Nc3ccc(CC(=O)O)cc3)c(=O)oc12"
active

// same read-out, input: "CC1=CC(C)(C)N2C(=O)C(=Nc3ccc(O)cc3)c3cccc1c32"
active

// same read-out, input: "CCCCn1c(NC(=O)c2ccco2)c(S(=O)(=O)c2ccc(C)cc2)c2nc3ccccc3nc21"
inactive

Reference source for all entries: PubChem BioAssay AID2141
